In this section, each of the compounds is paired with its reported pIC50.
biological target: various mutants of kinase EGFR (BaF3 cell lines stably transfected with kinase) (Homo sapiens, UniProt P00533, T790M, form not given); construct: other: BaF3 cells stably transfected with EGFR Δ19Del/T790M; MTS, 48 h; other: BaF3 cell line stably transfected with EGFR Δ19Del/T790M; MTS, 48; experiment: Growth inhibitory activity of compounds on BaF3 cell lines stably transfected with kinase (MTS, 48 h); type: cell-based; conditions: BaF3 cells stably transfected with EGFR Δ19Del/T790M, read-out: IC50, growth inhibition, Δ19Del/T790M
Sequence (P00533 with tags, fused parts or gaps DEL746-750/T790M, form open): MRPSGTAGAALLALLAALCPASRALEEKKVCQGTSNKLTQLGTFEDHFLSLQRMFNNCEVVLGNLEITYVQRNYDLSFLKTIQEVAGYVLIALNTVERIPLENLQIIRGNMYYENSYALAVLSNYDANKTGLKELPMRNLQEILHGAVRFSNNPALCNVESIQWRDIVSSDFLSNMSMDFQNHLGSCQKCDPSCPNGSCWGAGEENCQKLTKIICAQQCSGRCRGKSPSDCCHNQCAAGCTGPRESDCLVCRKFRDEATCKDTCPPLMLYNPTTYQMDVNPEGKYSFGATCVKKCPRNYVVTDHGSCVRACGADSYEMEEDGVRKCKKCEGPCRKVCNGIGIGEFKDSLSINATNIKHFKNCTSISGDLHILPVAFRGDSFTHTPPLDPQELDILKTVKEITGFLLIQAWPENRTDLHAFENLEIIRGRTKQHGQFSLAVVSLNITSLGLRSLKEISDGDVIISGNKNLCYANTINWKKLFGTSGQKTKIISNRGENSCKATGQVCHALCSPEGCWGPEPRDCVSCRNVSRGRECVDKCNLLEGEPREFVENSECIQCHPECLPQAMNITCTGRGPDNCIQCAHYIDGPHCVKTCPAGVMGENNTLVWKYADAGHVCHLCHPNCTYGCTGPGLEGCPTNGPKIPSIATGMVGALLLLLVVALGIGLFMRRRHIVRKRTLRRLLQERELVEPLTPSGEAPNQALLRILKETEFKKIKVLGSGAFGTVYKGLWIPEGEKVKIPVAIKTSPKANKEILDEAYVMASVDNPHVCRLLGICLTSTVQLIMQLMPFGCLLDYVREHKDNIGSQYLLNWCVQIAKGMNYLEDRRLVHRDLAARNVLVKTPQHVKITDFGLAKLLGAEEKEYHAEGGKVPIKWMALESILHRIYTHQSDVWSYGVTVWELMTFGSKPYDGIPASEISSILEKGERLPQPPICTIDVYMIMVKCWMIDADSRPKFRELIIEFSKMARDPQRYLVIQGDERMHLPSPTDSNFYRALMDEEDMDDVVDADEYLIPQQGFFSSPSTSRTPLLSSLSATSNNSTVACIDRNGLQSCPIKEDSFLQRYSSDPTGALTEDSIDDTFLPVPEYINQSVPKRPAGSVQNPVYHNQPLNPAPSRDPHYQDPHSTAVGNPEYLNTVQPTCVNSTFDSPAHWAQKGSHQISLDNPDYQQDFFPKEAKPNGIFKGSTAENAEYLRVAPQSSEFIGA
pIC50: −log10 of the molar value.

Observe how each entry below is paired with its result.
Sure, the documented pIC50 for CCc1cc(Nc2ncc(Cl)c(Nc3ccc4nccnc4c3N(C)S(=O)(=O)C(F)(F)F)n2)c(OC)nc1N1CCC(N2CCN(C)CC2)CC1 [Compound I-262] is 6.30 to 7.30

The compound identified as CCc1cc(Nc2ncc(Br)c(Nc3ccc4nccnc4c3N(C)S(=O)(=O)C(F)(F)F)n2)c(OC)cc1N1CCN(C)CC1 [Compound I-260] registered its pIC50 at 6.30 to 7.30

pIC50 reading for COc1cc(N2CCC(N3CCN(C)CC3)CC2)c(C(C)C)cc1Nc1ncc(Cl)c(Nc2ccc3nccnc3c2N(C)S(C)(=O)=O)n1 [Compound I-288] : 6.30 to 7.30

New cases:
Recorded result, C=Cc1cc(Nc2ncc(Cl)c(Nc3ccc4nccnc4c3N(C)S(=O)(=O)C(F)(F)F)n2)c(OC(F)(F)F)cc1N1CCC(N2CCN(C)CC2)CC1 [Compound I-263] , pIC50: 6.30 to 7.30

For this compound ( CCN(c1c(Nc2nc(Nc3ccc(N4CCC(N5CCN(C)CC5)CC4)cc3OC)ncc2Br)ccc2nccnc12)S(C)(=O)=O [Compound I-211] ), measured pIC50 is ≥ 7.30

Field pIC50 (entry CCS(=O)(=O)N(C)c1c(Nc2nc(Nc3ccc(N4CCC(N5CCN(C)CC5)CC4)cc3OC)ncc2Br)ccc2nccnc12 [Compound I-214] ) reads ≥ 7.30

----------
biological target: various mutants of kinase EGFR (BaF3 cell lines stably transfected with kinase) (Homo sapiens); construct: other: BaF3 cells stably transfected with EGFR Δ19Del; MTS, 48 h; other: BaF3 cell line stably transfected with EGFR Δ19Del; assay: Growth inhibitory activity of compounds on BaF3 cell lines stably transfected with kinase (MTS, 48 h); assay type: cell-based; details: BaF3 cell line stably transfected with EGFR Δ19Del, read-out: Δ19Del growth inhibitory activity IC50
pIC50: −log10 of the molar value.
assay readout: pIC50

Note to self: pIC50 recorded for COc1ccc(N2CCC(O)CC2)cc1Nc1ncc(C(C)C)c(Nc2ccc3nccnc3c2N(C)S(C)(=O)=O)n1 was ≥ 7.30

// field: pIC50; key: COc1cc(N2CCC(N3CCN(C)CC3)CC2)c(C)cc1Nc1ncc(Br)c(Nc2ccc3nccnc3c2NS(=O)(=O)C(C)C)n1 ; value = 6.30 to 7.30

Query CCc1cc(Nc2nc(Nc3ccc4nccnc4c3N(C)S(C)(=O)=O)c3cc[nH]c3n2)c(OC(F)(F)F)cc1N1CCC(N2CCN(C)CC2)CC1 yields pIC50 of 6.30 to 7.30

Noted for C=Cc1cc(Nc2ncc(Br)c(Nc3ccc4nccnc4c3N(C3CC3)S(C)(=O)=O)n2)c(OC(F)(F)F)cc1N1CCC(N2CCN(C)CC2)CC1 : its pIC50 reads 5.60 to 6.30

Sure, the documented pIC50 for CCc1cc(Nc2nc(Nc3ccc4nccnc4c3N(C)S(C)(=O)=O)c3sccc3n2)c(OC)cc1N1CCC(N(C)C)CC1 is 5.60 to 6.30

Value of measured pIC50 for the entry CCc1cc(Nc2ncc(C)c(Nc3ccc4nccnc4c3N(C)S(C)(=O)=O)n2)c(OC(F)(F)F)cc1N1CCC(N2CCN(C)CC2)CC1 : 6.30 to 7.30

***
// recorded pIC50 for COc1cc(N2CCC(N3CCN(C)CC3)CC2)ccc1Nc1ncc(Cl)c(Nc2ccc3nccnc3c2N(C2CC2)S(C)(=O)=O)n1 : 6.30 to 7.30

The recorded pIC50 for CCc1cc(Nc2ncc(CC)c(Nc3ccc4nccnc4c3N(C)S(C)(=O)=O)n2)c(OC)cc1N1CCC(N(C)C)C1 (stereo not shown) is ≥ 7.30
